assay: in vitro; conditions: human, A549-hACE2 cells, uninfected
Property Label: CC50 at 48 h

- Smiles String: "FC(F)(F)c1nc(C(F)(F)F)c2ccc3nc(-c4nnco4)cn3c2n1"
  CC50 at 48 h: "> 10 µM"

Now for another entry.
// returns reported CC50 at 48 h for input `FC(F)(F)c1cc(C(F)(F)F)c2ccc3nc(-c4nnco4)cn3c2n1`
> 10 µM
